Reported pKd values follow for various compounds
test: Binding affinity to Vibrio cholerae cholera toxin assessed as quenching of intrinsic fluorescence by two-state binding model assay
Would you please state pKd, meaning minus log10 of the concentration in mol/L, as a bare number?

[[record]]
compound = "CCCCC/C=C\\C/C=C\\CCCCCCCC(=O)[O-].[Na+] [SODIUM LINOLATE]"
experimentalreadout = "pKd"
assayresult = 3.89

[[record]]
compound = "CCCCCCCC/C=C\\CCCCCCCC(=O)O"
experimentalreadout = "pKd"
assayresult = 3.80


Lab note: next compound to report on.
Q: # query: pKd of entry CCCCC/C=C\C/C=C\C/C=C\C/C=C\CCCC(=O)O
Ans: 3.74

---

Listed next: entries and their corresponding IC50.
assay: Binding affinity to Vibrio cholerae cholera toxin assessed as inhibition of cholera toxin binding to ganglioside GM1 receptor treated 15 mins before receptor addition by ELISA
Response body: numeric value in µM, unit text excluded.

[[record]]
chemicalstring = "CCCCCCCCCCCCCCCC(=O)O"
experimentalreadout = "IC50"
assayresult = 5800


Q: So what's the measured IC50 for this one? CCCCC/C=C\C/C=C\C/C=C\C/C=C\CCCC(=O)O
Ans: 380

Q: Check CCCCC/C=C\C/C=C\CCCCCCCC(=O)O too.
Ans: 410

Q: Next record, please: CCCCCCCCCCCCCCCCCC(=O)O
Ans: 5270

Q: Would you mind doing CCCCCCCC/C=C\CCCCCCCC(=O)O as well?
Ans: 410

// data source = ChEMBL document CHEMBL1151459
